Known inhibition of a selection of compounds
- experimental_target: UniProt:P14679
- Sequence (P14679 whole entry): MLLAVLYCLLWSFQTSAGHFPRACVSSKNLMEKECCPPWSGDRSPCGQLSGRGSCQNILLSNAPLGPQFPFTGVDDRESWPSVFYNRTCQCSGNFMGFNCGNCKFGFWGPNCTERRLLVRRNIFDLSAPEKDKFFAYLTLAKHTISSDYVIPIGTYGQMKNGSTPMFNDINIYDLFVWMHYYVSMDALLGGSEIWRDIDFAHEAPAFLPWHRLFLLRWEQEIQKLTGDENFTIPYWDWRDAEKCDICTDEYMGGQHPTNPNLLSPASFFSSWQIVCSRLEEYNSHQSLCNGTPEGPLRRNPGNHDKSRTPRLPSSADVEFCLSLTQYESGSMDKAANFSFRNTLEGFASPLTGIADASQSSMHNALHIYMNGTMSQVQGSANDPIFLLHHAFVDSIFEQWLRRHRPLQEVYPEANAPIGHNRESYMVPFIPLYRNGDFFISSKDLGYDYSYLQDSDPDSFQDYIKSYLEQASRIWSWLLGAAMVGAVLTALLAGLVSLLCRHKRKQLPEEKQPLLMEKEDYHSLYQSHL
- condition: at 10 µM;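 further: tyrosinase of unspecified origin acting on L-tyrosine, compound preincubated with enzyme for 15 min before adding substrate, inhibition expressed versus control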
- Description: Inhibition of tyrosinase (unknown origin) using L-tyrosine as substrate at 10 uM preincubated for 15 mins followed by substrate addition relative to control

• CC(C)=CCc1cc(/C=C/C(=O)c2ccc3c(c2O)C=CC(C)(C)O3)ccc1O = 0%

State its inhibition on UniProt:P14679: CC1(C)C=Cc2c(O)ccc(-c3cc4ccc(O)cc4o3)c2O1
12.5%

State its inhibition on UniProt:P14679: CC1(C)C=Cc2c(ccc3c2OCC(c2ccc(O)cc2O)=C3)O1
50.9%

State its inhibition on UniProt:P14679: COc1ccc([C@@H]2COc3c(ccc4c3C=CC(C)(C)O4)C2)c(O)c1O
18.4%

State its inhibition on UniProt:P14679: CC1(C)C=Cc2c(ccc3c2OC[C@@H](c2ccc(O)cc2O)C3)O1 [GLABRIDIN]
99.7%

State its inhibition on UniProt:P14679: O=C1C[C@@H](c2ccc(O)cc2)Oc2cc(O)cc(O)c21 [NARINGENIN]
2.2%

State its inhibition on UniProt:P14679: CC1(C)C=Cc2c(ccc([C@@H]3COc4c(ccc5c4C=CC(C)(C)O5)C3)c2O)O1 [HISPAGLABRIDIN B]
0%

State its inhibition on UniProt:P14679: CC1(C)C=Cc2c(ccc3c2OCc2c-3oc3cc(O)ccc23)O1
26.3%

State its inhibition on UniProt:P14679: CC(C)=CCc1c(O)ccc2c1O[C@H](c1ccc3c(c1)C=CC(C)(C)O3)CC2=O
3.1%

State its inhibition on UniProt:P14679: CC(C)=CCc1c(O)ccc2c1OC[C@@H](c1ccc3c(c1O)C=CC(C)(C)O3)C2
12.9%

State its inhibition on UniProt:P14679: COc1ccc([C@@H]2COc3c(ccc4c3C=CC(C)(C)O4)C2)c(O)c1
2.2%
